Assay: in vivo
Conditions: goat
endpoint_name: concentration at 12 h (ng/mL)

{"columns": ["chemical_structure", "result_value"],
 "data": [
  ["NCC[C@H](O)C(=O)N[C@@H]1C[C@H](N)[C@@H](O[C@H]2O[C@H](CN)[C@@H](O)[C@H](O)[C@H]2O)[C@H](O)[C@H]1O[C@H]1O[C@H](CO)[C@@H](O)[C@H](N)[C@H]1O", 200]
]}

----------
Experiment: in vivo
Conditions: goat, 5 mg/ml solution (sponge loading)

{"columns": ["compound", "concentration at 36 h / ng/mL"],
 "data": [
  ["CN[C@H](CC(C)C)C(=O)N[C@H]1C(=O)N[C@@H](CC(N)=O)C(=O)N[C@H]2C(=O)N[C@H]3C(=O)N[C@H](C(=O)N[C@H](C(=O)O)c4cc(O)cc(O)c4-c4cc3ccc4O)[C@H](O)c3ccc(c(Cl)c3)Oc3cc2cc(c3O[C@@H]2O[C@H](CO)[C@@H](O)[C@H](O)[C@H]2O[C@H]2C[C@](C)(N)[C@H](O)[C@H](C)O2)Oc2ccc(cc2Cl)[C@H]1O [vancomycin]", 740]
]}
